System: NCI-H510 multicellular tumor spheroid growth, % test/control
Experiment: Anticancer human tumor NCI-H510 cell line growth inhibition [Asc];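 note: spheroids exposed to agents for 7 days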
Conditions: curve of first compound; second compound 0.1 µM
Attribute Measured: IC50

# example entries with known answers
Compound	Data Value
CCN1C(C(=O)NC23CCC(C(=O)O)(CC2)CC3)C(c2cccc(Cl)c2F)C2(C(=O)Nc3cc(Cl)ccc32)C12CCCCC2 (configuration not stated) + CNC(C)C(=O)NC1CN(S(=O)(=O)c2cccc(S(=O)(=O)N3CCC4CCC(C(=O)NC(c5ccccc5)c5ccccc5)N4C(=O)C(NC(=O)C(C)NC)C3)c2)CCC2CCC(C(=O)NC(c3ccccc3)c3ccccc3)N2C1=O	> 3 µM
C=CC(=O)N1CCN(c2nc(=O)n(-c3c(C)ccnc3C(C)C)c3nc(-c4c(O)cccc4F)c(F)cc23)C(C)C1 (configuration not stated) + CNC(C)C(=O)NC1CN(S(=O)(=O)c2cccc(S(=O)(=O)N3CCC4CCC(C(=O)NC(c5ccccc5)c5ccccc5)N4C(=O)C(NC(=O)C(C)NC)C3)c2)CCC2CCC(C(=O)NC(c3ccccc3)c3ccccc3)N2C1=O	> 10 µM
C=CC(=O)N1CCN(c2nc(=O)n(-c3c(C)ccnc3C(C)C)c3nc(-c4c(O)cccc4F)c(F)cc23)C(C)C1 (configuration not stated) + Cc1c(S(C)(=O)=O)c(-c2cc(F)cc(N3CCN(c4ccc(NS(=O)(=O)c5ccc(NC(CCN6CCC(C(=O)OCCCP(=O)(O)O)CC6)CSc6ccccc6)c(S(=O)(=O)C(F)(F)F)c5)cc4)CC3)c2)c(-c2ccc(Cl)cc2)n1C(C)C	> 10 µM
C=C(F)C(=O)N1CCN(c2nc(OCC3CCCN3C)nc3c2CCN(c2cccc4cccc(Cl)c24)C3)CC1CC#N (configuration not stated) + CNC(C)C(=O)NC1CN(S(=O)(=O)c2cccc(S(=O)(=O)N3CCC4CCC(C(=O)NC(c5ccccc5)c5ccccc5)N4C(=O)C(NC(=O)C(C)NC)C3)c2)CCC2CCC(C(=O)NC(c3ccccc3)c3ccccc3)N2C1=O	1.75 µM
NC1CCC(NC2CC2c2ccccc2)CC1 (configuration not stated) + CNC(C)C(=O)NC1CN(S(=O)(=O)c2cccc(S(=O)(=O)N3CCC4CCC(C(=O)NC(c5ccccc5)c5ccccc5)N4C(=O)C(NC(=O)C(C)NC)C3)c2)CCC2CCC(C(=O)NC(c3ccccc3)c3ccccc3)N2C1=O	> 0.1 µM

## Input // IC50 lookup, key: NC1CCC(NC2CC2c2ccccc2)CC1 (configuration not stated) + Cc1c(S(C)(=O)=O)c(-c2cc(F)cc(N3CCN(c4ccc(NS(=O)(=O)c5ccc(NC(CCN6CCC(C(=O)OCCCP(=O)(O)O)CC6)CSc6ccccc6)c(S(=O)(=O)C(F)(F)F)c5)cc4)CC3)c2)c(-c2ccc(Cl)cc2)n1C(C)C
## Output > 0.1 µM

## Input And what about the compound NC(=O)C(=Cn1cnc(-c2cc(C(F)(F)F)cc(C(F)(F)F)c2)n1)c1cncnc1 + CNC(C)C(=O)NC1CN(S(=O)(=O)c2cccc(S(=O)(=O)N3CCC4CCC(C(=O)NC(c5ccccc5)c5ccccc5)N4C(=O)C(NC(=O)C(C)NC)C3)c2)CCC2CCC(C(=O)NC(c3ccccc3)c3ccccc3)N2C1=O ?
## Output > 0.3 µM

###

Test system: NCI-H510 multicellular tumor spheroid growth, % test/control
Experiment: Anticancer human tumor NCI-H510 cell line growth inhibition [Asc];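 note: spheroids exposed to agents for 7 days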
Conditions: compound alone; run of 10/24/2022
pIC50: −log10 of the molar value.
Attribute Measured: pIC50

## Input // pIC50 lookup, key: CNC(C)C(=O)NC1CN(S(=O)(=O)c2cccc(S(=O)(=O)N3CCC4CCC(C(=O)NC(c5ccccc5)c5ccccc5)N4C(=O)C(NC(=O)C(C)NC)C3)c2)CCC2CCC(C(=O)NC(c3ccccc3)c3ccccc3)N2C1=O (stereo unspecified)
## Output < 6.00

###

System: NCI-H510 multicellular tumor spheroid growth, % test/control
Test: Anticancer human tumor NCI-H510 cell line growth inhibition [Asc];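 note: spheroids exposed to agents for 7 days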;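 for viability, T/C: 100% = DMSO vehicle control wells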
Details: second compound 1 µM; first compound 10 µM; stronger effect = lower value
Attribute Measured: viability, T/C (%)
# unit: % | format: bare number

Molecule	Tgt	viability, T/C (%)
O=C(c1cc(Cc2n[nH]c(=O)c3ccccc23)ccc1F)N1CCN(C(=O)C2CC2)CC1 + CNC(C)C(=O)NC1CN(S(=O)(=O)c2cccc(S(=O)(=O)N3CCC4CCC(C(=O)NC(c5ccccc5)c5ccccc5)N4C(=O)C(NC(=O)C(C)NC)C3)c2)CCC2CCC(C(=O)NC(c3ccccc3)c3ccccc3)N2C1=O	NCI-H510 multicellular tumor spheroid growth, % test/control	58

API: the following record is the query input.
## Input // viability, T/C lookup, key: C=C(F)C(=O)N1CCN(c2nc(OCC3CCCN3C)nc3c2CCN(c2cccc4cccc(Cl)c24)C3)CC1CC#N (configuration not stated) + CNC(C)C(=O)NC1CN(S(=O)(=O)c2cccc(S(=O)(=O)N3CCC4CCC(C(=O)NC(c5ccccc5)c5ccccc5)N4C(=O)C(NC(=O)C(C)NC)C3)c2)CCC2CCC(C(=O)NC(c3ccccc3)c3ccccc3)N2C1=O
## Output 0.22

###

System: NCI-H510 multicellular tumor spheroid growth, % test/control
Assay: Anticancer human tumor NCI-H510 cell line growth inhibition [Asc]; active means viability on the fitted dose curve at most 10% of control; inactive means the rest;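 note: spheroids exposed to agents for 7 days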
Conditions: second compound 1 µM; first compound 3.16 µM
Pick from active, inactive when you respond.

Some entries whose results are on file:
Compound	Class Assignment
C=C(F)C(=O)N1CCN(c2nc(OCC3CCCN3C)nc3c2CCN(c2cccc4cccc(Cl)c24)C3)CC1CC#N (stereo not drawn) + Cc1c(S(C)(=O)=O)c(-c2cc(F)cc(N3CCN(c4ccc(NS(=O)(=O)c5ccc(NC(CCN6CCC(C(=O)OCCCP(=O)(O)O)CC6)CSc6ccccc6)c(S(=O)(=O)C(F)(F)F)c5)cc4)CC3)c2)c(-c2ccc(Cl)cc2)n1C(C)C	active
C#Cc1c(F)ccc2cc(O)cc(-c3ncc4c(N5CC6CCC(C5)N6)nc(OCC56CCCN5CC(F)C6)nc4c3F)c12 (stereo not drawn) + Cc1c(S(C)(=O)=O)c(-c2cc(F)cc(N3CCN(c4ccc(NS(=O)(=O)c5ccc(NC(CCN6CCC(C(=O)OCCCP(=O)(O)O)CC6)CSc6ccccc6)c(S(=O)(=O)C(F)(F)F)c5)cc4)CC3)c2)c(-c2ccc(Cl)cc2)n1C(C)C	inactive

## Input Would you mind telling me which call this test gave O=C(c1cc(Cc2n[nH]c(=O)c3ccccc23)ccc1F)N1CCN(C(=O)C2CC2)CC1 + CNC(C)C(=O)NC1CN(S(=O)(=O)c2cccc(S(=O)(=O)N3CCC4CCC(C(=O)NC(c5ccccc5)c5ccccc5)N4C(=O)C(NC(=O)C(C)NC)C3)c2)CCC2CCC(C(=O)NC(c3ccccc3)c3ccccc3)N2C1=O ?
## Output inactive

## Input And what about the compound C=C(F)C(=O)N1CCN(c2nc(OCC3CCCN3C)nc3c2CCN(c2cccc4cccc(Cl)c24)C3)CC1CC#N (stereo not drawn) + CNC(C)C(=O)NC1CN(S(=O)(=O)c2cccc(S(=O)(=O)N3CCC4CCC(C(=O)NC(c5ccccc5)c5ccccc5)N4C(=O)C(NC(=O)C(C)NC)C3)c2)CCC2CCC(C(=O)NC(c3ccccc3)c3ccccc3)N2C1=O ?
## Output active

## Input And what about the compound C=CC(=O)N1CCN(c2nc(=O)n(-c3c(C)ccnc3C(C)C)c3nc(-c4c(O)cccc4F)c(F)cc23)C(C)C1 (stereo not drawn) + Cc1c(S(C)(=O)=O)c(-c2cc(F)cc(N3CCN(c4ccc(NS(=O)(=O)c5ccc(NC(CCN6CCC(C(=O)OCCCP(=O)(O)O)CC6)CSc6ccccc6)c(S(=O)(=O)C(F)(F)F)c5)cc4)CC3)c2)c(-c2ccc(Cl)cc2)n1C(C)C ?
## Output inactive

## Input And what about the compound C=CC(=O)N1CCN(c2nc(=O)n(-c3c(C)ccnc3C(C)C)c3nc(-c4c(O)cccc4F)c(F)cc23)C(C)C1 (stereo not drawn) + CNC(C)C(=O)NC1CN(S(=O)(=O)c2cccc(S(=O)(=O)N3CCC4CCC(C(=O)NC(c5ccccc5)c5ccccc5)N4C(=O)C(NC(=O)C(C)NC)C3)c2)CCC2CCC(C(=O)NC(c3ccccc3)c3ccccc3)N2C1=O ?
## Output inactive

## Input And what about the compound O=C(c1cc(Cc2n[nH]c(=O)c3ccccc23)ccc1F)N1CCN(C(=O)C2CC2)CC1 + Cc1c(S(C)(=O)=O)c(-c2cc(F)cc(N3CCN(c4ccc(NS(=O)(=O)c5ccc(NC(CCN6CCC(C(=O)OCCCP(=O)(O)O)CC6)CSc6ccccc6)c(S(=O)(=O)C(F)(F)F)c5)cc4)CC3)c2)c(-c2ccc(Cl)cc2)n1C(C)C ?
## Output inactive

## Input And what about the compound C#Cc1c(F)ccc2cc(O)cc(-c3ncc4c(N5CC6CCC(C5)N6)nc(OCC56CCCN5CC(F)C6)nc4c3F)c12 (stereo not drawn) + CNC(C)C(=O)NC1CN(S(=O)(=O)c2cccc(S(=O)(=O)N3CCC4CCC(C(=O)NC(c5ccccc5)c5ccccc5)N4C(=O)C(NC(=O)C(C)NC)C3)c2)CCC2CCC(C(=O)NC(c3ccccc3)c3ccccc3)N2C1=O ?
## Output inactive
